# MEASURED ON: T1, human CD33 (human, UniProt P20138 18-259, limits assumed)
# T1 construct: Human CD33 immobilized on the BLI sensor tip or the BIAcore C1 chip; also called Siglec-3
# TEST: BLI (ForteBio), Fab 100 nM on immobilized CD33
The following binders are shown together with reported koff values.
MEASURED ENDPOINT: koff (s⁻¹)

binder="AB-14.1 (antibody, V domains shown) VH: QVQLVQSGAEVKKPGASVKVSCKASGATFTDYNFHWVRQAPGQGLEWIGFIYPSNGITGYAQDFQGRVTMTVDTSTSTVYMELSSLRSEDTAVYYCARSDVDYFDYWGQGTLVTVSS VL: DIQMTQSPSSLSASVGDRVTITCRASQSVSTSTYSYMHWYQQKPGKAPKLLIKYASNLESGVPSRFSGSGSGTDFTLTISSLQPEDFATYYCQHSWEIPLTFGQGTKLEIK" measured_endpoint=koff uom=s⁻¹ value_comparator=≤ recorded_measurement=0.0002
binder="AB-H63 (antibody, V domains shown, Humanized variant of murine 2F5.1) VH: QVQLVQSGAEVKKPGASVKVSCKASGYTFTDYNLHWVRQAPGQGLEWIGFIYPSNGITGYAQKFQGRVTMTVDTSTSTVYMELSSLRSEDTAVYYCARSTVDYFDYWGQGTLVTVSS VL: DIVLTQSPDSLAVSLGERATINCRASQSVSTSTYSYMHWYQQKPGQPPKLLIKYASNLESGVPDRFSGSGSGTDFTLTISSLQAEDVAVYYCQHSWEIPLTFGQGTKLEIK" measured_endpoint=koff uom=s⁻¹ value_comparator== recorded_measurement=0.00168
